Origin of the recorded values: patent US20190298824A1

molecular target: albumin; test: albumin binding of AlbiTrp2; settings: R^2=0.88
pKd: −log10 of the molar value.
measure.name: pKd

[
  {
    "substance": "AlbiTrp2: Trp2 peptide with N-terminal cysteine conjugated with MEB (CSVYDFFVWL)",
    "measure.name": "pKd",
    "measurement": 6.10
  }
]
